biological target: Hemagglutinin (Influenza A virus); assay: Binding affinity to recombinant influenza A hemagglutinin assessed as dissociation constant by SPR assay
MEASUREMENT NAME: pKd
To interpret pKd, take it as minus log10 of a concentration measured in moles per litre.

Prompt: // query pKd value for entry `CC1(C)CC[C@]2(C(=O)O)CC[C@]3(C)C(=CC[C@@H]4[C@@]5(C)CC[C@H](O)C(C)(C)[C@@H]5CC[C@]43C)[C@@H]2C1`
Completion: 4.96

Prompt: // query pKd value for entry `Cc1ncsc1-c1ccc(CNC(=O)[C@@H]2CCCN2C(=O)[C@@H](NC(=O)CCOCCOCCOCCNC(=O)[C@]23CCC(C)(C)C[C@H]2C2=CC[C@@H]4[C@@]5(C)CC[C@H](O)C(C)(C)[C@@H]5CC[C@@]4(C)[C@]2(C)CC3)C(C)(C)C)cc1`
Completion: 5.50

---

assay: Cmax in BALB/c mouse infected with Influenza A A/WSN/33 (H1N1) virus at 10 mg/kg, iv measured after 24 hrs by LC-MS analysis; assay type: ADME, organism-based; set-up: time 24 hrs, dose 10 mg/kg, route iv; details: in vivo
MEASUREMENT NAME: Cmax (ng/mL)
Supply the numeric figure in ng/mL, leaving out any unit text.

Prompt: Which value of Cmax has been reported for `Cc1ncsc1-c1ccc(CNC(=O)[C@@H]2CCCN2C(=O)[C@@H](NC(=O)CCOCCOCCOCCNC(=O)[C@]23CCC(C)(C)C[C@H]2C2=CC[C@@H]4[C@@]5(C)CC[C@H](O)C(C)(C)[C@@H]5CC[C@@]4(C)[C@]2(C)CC3)C(C)(C)C)cc1` in the records?
Completion: 2070

---

assay: MRT in BALB/c mouse infected with Influenza A A/WSN/33 (H1N1) virus at 50 mg/kg, po measured after 24 hrs by LC-MS analysis; format: ADME, organism-based; details: in vivo
MEASUREMENT NAME: MRT (h)
# value in h; strip the unit string

Prompt: // MRT lookup, key: `Cc1ncsc1-c1ccc(CNC(=O)[C@@H]2CCCN2C(=O)[C@@H](NC(=O)CCOCCOCCOCCNC(=O)[C@]23CCC(C)(C)C[C@H]2C2=CC[C@@H]4[C@@]5(C)CC[C@H](O)C(C)(C)[C@@H]5CC[C@@]4(C)[C@]2(C)CC3)C(C)(C)C)cc1`
Completion: 1.56

---

experiment: AUCinfinity in BALB/c mouse infected with Influenza A A/WSN/33 (H1N1) virus at 10 mg/kg, iv measured after 24 hrs by LC-MS analysis; assay type: ADME, organism-based; parameters: dose 10 mg/kg, time 24 hrs, route iv; conditions: in vivo
MEASUREMENT NAME: AUC(0-inf) (ng·h/mL)
Write it as a number; the unit ng·h/mL goes unstated.

Prompt: Dear colleague, I am looking for the recorded AUC(0-inf) of the following compound: `Cc1ncsc1-c1ccc(CNC(=O)[C@@H]2CCCN2C(=O)[C@@H](NC(=O)CCOCCOCCOCCNC(=O)[C@]23CCC(C)(C)C[C@H]2C2=CC[C@@H]4[C@@]5(C)CC[C@H](O)C(C)(C)[C@@H]5CC[C@@]4(C)[C@]2(C)CC3)C(C)(C)C)cc1`
Completion: 7450

---

assay: Cytotoxicity against HEK293T cells assessed as cell viability at 50 uM incubated for 36 hrs by Celltiter-Glo assay relative to control; format: toxicity, cell-based, HEK-293T; details: human, read-out: Activity
MEASUREMENT NAME: viability at 36 h, 50 µM

Prompt: # get_value(readout='viability at 36 h, 50 µM', item= `Cc1ncsc1-c1ccc(CNC(=O)[C@@H]2CCCN2C(=O)[C@@H](NC(=O)CCOCCOCCOCCNC(=O)[C@]23CCC(C)(C)C[C@H]2C2=CC[C@@H]4[C@@]5(C)CC[C@H](O)C(C)(C)[C@@H]5CC[C@@]4(C)[C@]2(C)CC3)C(C)(C)C)cc1` )
Completion: > 85%
